tgt: human GR (Homo sapiens)
Construct: naturally expresses the human GR; endogenous in cells
Sequence (P04150 1-777): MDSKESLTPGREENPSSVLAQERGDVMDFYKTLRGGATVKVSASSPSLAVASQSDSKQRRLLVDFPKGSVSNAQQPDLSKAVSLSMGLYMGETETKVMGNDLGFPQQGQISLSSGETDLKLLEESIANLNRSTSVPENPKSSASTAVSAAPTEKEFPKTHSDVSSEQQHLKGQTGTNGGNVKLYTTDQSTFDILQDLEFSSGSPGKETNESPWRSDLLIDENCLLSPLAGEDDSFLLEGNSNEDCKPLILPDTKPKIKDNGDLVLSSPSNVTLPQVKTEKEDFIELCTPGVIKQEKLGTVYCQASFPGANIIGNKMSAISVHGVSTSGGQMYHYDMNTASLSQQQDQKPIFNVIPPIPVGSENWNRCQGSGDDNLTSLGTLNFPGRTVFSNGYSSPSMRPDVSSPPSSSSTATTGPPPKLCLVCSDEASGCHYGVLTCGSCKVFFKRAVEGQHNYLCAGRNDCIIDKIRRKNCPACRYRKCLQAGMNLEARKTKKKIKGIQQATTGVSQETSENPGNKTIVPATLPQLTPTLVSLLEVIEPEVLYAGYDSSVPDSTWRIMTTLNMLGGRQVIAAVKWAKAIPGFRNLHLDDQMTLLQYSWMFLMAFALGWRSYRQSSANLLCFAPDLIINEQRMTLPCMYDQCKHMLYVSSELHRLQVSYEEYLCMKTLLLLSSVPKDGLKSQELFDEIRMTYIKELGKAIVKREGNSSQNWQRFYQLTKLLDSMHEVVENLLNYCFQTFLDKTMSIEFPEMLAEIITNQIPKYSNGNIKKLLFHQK
experimental-protocol: Trans-activation modulation of glucocorticoid receptor (GRAMMER), MMTV-LUC reporter in A549 cells
Assay type: cell-based
condition-label: A549 cells; IP = inflection point; read-out: Transactivation A549 Cells Grammer IP
Method: Trans-Activation Modulation of Glucocorticoid Receptor (GRAMMER) […] The routine transient assay consists of plating 7,000-25,000 cells/well of a white, clear-bottom 96-well plate. […] The cells are trypsinized and counted to the right cell number in the proper amount of fresh media. […] Antagonist activity is calculated by determining the decrease in dexamethasone-induced activity in response to compound treatment relative to samples that were treated with dexamethasone alone. […]
# strict inequality: EC50 < 40 nM yields class 1, everything else yields class 0

compound: CC[C@]12Cc3cnn(-c4ccccc4)c3C=C1CC[C@@]2(O)CC(O)c1ccccn1 (single isomer, unassigned) [Example 67b]
category: class 0

compound: NC(=O)C(O)c1ccccc1CC[C@]1(O)CCC2=Cc3c(cnn3-c3ccc(F)cc3)C[C@@]21C1CC1 (single isomer, unassigned) [Example 3b]
category: class 0

compound: NC(=O)Cc1ccccc1CC[C@]1(O)CCC2=Cc3c(cnn3-c3ccc(F)cc3)C[C@@]21C1CC1
category: class 1

compound: CC[C@]12Cc3cnn(-c4ccc(F)cc4)c3C=C1CC[C@@]2(O)CC(O)c1ccc(F)cn1 (single isomer, unassigned) [Example 69a]
category: class 0

compound: CC[C@]12Cc3cnn(-c4ccc(F)cc4)c3C=C1CC[C@@]2(O)CCc1ncccc1F
category: class 1

compound: N#Cc1ccccc1CC[C@]1(O)CCC2=Cc3c(cnn3-c3cccnc3)C[C@@]21C1CC1
category: class 0

compound: CCS(=O)(=O)c1ccccc1CC[C@]1(O)CCC2=Cc3c(cnn3-c3ccc(F)cc3)C[C@@]21C1CC1
category: class 1
